Just for reference, paper PMC4145321 is where these values come from.

- System: RKO-AS-45-1 cells (colon carcinoma)
- run_description: MTT cytotoxicity assay, RKO-AS-45-1
- Assay type: cell-based, human
- conditions_used: Homo sapiens, RKOAS451; MTT, 48 h incubation, triplicate, average ± SD
Mark each entry label 1 if its IC50 sits below 5 µM, and label 0 for all others.

compound	system_tested	group
c1cncc(CCCOCCCCCCOC2CCCCO2)c1 (stereo not drawn)	RKO-AS-45-1 cells (colon carcinoma)	label 0
COc1cc([C@@H]2c3cc4c(cc3[C@@H](O[C@@H]3O[C@@H]5CO[C@@H](C)O[C@H]5[C@H](O)[C@H]3O)[C@H]3COC(=O)[C@H]23)OCO4)cc(OC)c1O [Etoposide, reference compound]	RKO-AS-45-1 cells (colon carcinoma)	label 1
c1cncc(CCCOCCCCCCCCCCCCOC2CCCCO2)c1 (stereo not drawn)	RKO-AS-45-1 cells (colon carcinoma)	label 1
OCCCCCCCCCCCCOCCCc1cccnc1 [Compound 5d, 12-[3-(pyridin-3-yl)propoxy]dodecan-1-ol]	RKO-AS-45-1 cells (colon carcinoma)	label 0
c1cncc(CCCOCCCCCCCCOC2CCCCO2)c1 (stereo not drawn)	RKO-AS-45-1 cells (colon carcinoma)	label 0
OCCCCCCOCCCc1cccnc1 [Compound 5a, 6-[3-(pyridin-3-yl)propoxy]hexan-1-ol]	RKO-AS-45-1 cells (colon carcinoma)	label 0
OCCCCCCCCOCCCc1cccnc1 [Compound 5b, 8-[3-(pyridin-3-yl)propoxy]octan-1-ol]	RKO-AS-45-1 cells (colon carcinoma)	label 0
OCCCCCCCCCCOCCCc1cccnc1 [Compound 5c, 10-[3-(pyridin-3-yl)propoxy]decan-1-ol]	RKO-AS-45-1 cells (colon carcinoma)	label 0

====

Below: a set of entries, each annotated with reported IC50.
- Test system: HeLa cells (cervix adenocarcinoma)
- run_description: MTT cytotoxicity assay, HeLa
- Format: cell-based, human
- conditions_used: Homo sapiens, HeLa; MTT, 48 h incubation, triplicate, average ± SD

compound	value_relation_sign	IC50 / µM
c1cncc(CCCOCCCCCCCCCCCCOC2CCCCO2)c1 (stereo not drawn)	=	9.4
OCCCCCCCCOCCCc1cccnc1 [Compound 5b, 8-[3-(pyridin-3-yl)propoxy]octan-1-ol]	=	192
c1cncc(CCCOCCCCCCCCCCOC2CCCCO2)c1 (stereo not drawn)	=	4
COc1cc([C@@H]2c3cc4c(cc3[C@@H](O[C@@H]3O[C@@H]5CO[C@@H](C)O[C@H]5[C@H](O)[C@H]3O)[C@H]3COC(=O)[C@H]23)OCO4)cc(OC)c1O [Etoposide, reference compound]	=	2.7
OCCCCCCCCCCOCCCc1cccnc1 [Compound 5c, 10-[3-(pyridin-3-yl)propoxy]decan-1-ol]	=	8.5
c1cncc(CCCOCCCCCCCCOC2CCCCO2)c1 (stereo not drawn)	=	8.1
OCCCCCCCCCCCCOCCCc1cccnc1 [Compound 5d, 12-[3-(pyridin-3-yl)propoxy]dodecan-1-ol]	=	8.8
OCCCCCCOCCCc1cccnc1 [Compound 5a, 6-[3-(pyridin-3-yl)propoxy]hexan-1-ol]	>	400
c1cncc(CCCOCCCCCCOC2CCCCO2)c1 (stereo not drawn)	>	300
